subject.of.test: T1, human NPR1 extracellular domain expressed with a C-terminal mouse IgG2a (hNPR1-mFc) (human)
T1 construct: also called hNPR1-Fc; human NPR1 dimer
T1 chain: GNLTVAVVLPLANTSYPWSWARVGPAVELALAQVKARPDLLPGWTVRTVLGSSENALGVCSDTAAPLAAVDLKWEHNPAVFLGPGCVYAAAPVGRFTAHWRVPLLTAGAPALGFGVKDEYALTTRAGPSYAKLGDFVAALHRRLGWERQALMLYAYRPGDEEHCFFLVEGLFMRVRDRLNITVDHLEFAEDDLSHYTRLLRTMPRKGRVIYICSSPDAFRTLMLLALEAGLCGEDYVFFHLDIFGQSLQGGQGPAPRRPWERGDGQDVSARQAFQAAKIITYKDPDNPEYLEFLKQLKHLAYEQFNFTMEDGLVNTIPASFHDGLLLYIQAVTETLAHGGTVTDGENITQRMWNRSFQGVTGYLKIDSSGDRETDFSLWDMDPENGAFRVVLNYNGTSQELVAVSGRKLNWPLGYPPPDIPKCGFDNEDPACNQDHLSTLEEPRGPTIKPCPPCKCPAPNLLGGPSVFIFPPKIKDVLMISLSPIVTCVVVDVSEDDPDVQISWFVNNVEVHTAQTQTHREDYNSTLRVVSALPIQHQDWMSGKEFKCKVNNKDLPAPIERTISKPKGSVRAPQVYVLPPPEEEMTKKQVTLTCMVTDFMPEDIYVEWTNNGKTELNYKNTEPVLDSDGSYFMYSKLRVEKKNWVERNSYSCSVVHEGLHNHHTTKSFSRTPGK
experimental.protocol: SPR, mAb captured, 37 C
readout.kind: kon (M⁻¹ s⁻¹)
Response body: numeric value in M⁻¹ s⁻¹, unit text excluded.

The following binders have reported results that may help.
Recorded kon (binder mAb22035 (antibody, V domains shown) VH: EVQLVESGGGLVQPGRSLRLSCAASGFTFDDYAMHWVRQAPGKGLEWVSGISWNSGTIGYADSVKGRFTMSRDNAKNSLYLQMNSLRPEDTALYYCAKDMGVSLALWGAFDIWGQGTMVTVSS VL: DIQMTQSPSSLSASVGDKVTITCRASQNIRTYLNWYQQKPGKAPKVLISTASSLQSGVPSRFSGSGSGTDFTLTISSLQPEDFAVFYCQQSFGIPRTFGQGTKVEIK ): 636000

kon recorded for this binder, mAb25491 (antibody, V domains shown) VH: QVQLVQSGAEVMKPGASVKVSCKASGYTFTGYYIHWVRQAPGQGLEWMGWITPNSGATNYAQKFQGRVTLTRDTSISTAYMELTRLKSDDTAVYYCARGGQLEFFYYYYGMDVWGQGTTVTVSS VL: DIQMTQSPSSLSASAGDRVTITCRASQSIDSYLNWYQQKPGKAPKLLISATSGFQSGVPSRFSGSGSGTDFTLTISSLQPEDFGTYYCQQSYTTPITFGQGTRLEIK , is 41900

Record summary for mAb25508 (antibody, V domains shown) VH: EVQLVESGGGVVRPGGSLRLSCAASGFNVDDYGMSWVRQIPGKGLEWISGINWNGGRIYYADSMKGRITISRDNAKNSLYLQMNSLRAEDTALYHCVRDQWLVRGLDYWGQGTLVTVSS VL: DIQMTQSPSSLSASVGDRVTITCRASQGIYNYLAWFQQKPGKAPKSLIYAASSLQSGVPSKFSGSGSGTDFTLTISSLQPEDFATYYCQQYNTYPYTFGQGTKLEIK : reported kon = 838000

Short answer for mAb22033 (antibody, V domains shown) VH: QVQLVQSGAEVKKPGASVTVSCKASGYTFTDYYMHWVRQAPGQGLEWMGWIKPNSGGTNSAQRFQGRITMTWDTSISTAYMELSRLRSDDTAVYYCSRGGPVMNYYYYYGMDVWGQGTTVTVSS VL: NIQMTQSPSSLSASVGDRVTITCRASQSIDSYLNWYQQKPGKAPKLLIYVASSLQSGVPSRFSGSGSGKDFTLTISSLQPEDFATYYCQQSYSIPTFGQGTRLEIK : kon was 36800

kon reported for this binder mAb25497 (antibody, V domains shown) VH: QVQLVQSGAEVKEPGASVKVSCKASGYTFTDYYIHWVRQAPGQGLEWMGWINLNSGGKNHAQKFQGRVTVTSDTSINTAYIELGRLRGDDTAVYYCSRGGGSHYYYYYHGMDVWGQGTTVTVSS VL: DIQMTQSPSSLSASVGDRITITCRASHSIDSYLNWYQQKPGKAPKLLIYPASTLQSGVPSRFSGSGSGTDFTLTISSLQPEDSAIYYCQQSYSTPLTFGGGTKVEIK : 42300

Others:
The value of kon measured for the binder mAb25479 (antibody, V domains shown) VH: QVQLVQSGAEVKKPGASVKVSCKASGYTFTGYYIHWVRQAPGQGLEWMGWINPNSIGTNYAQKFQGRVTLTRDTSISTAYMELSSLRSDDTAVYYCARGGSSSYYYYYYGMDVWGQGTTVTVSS VL: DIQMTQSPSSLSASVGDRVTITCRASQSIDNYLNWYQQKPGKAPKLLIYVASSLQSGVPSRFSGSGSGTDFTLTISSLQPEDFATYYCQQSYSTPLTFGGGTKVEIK turned out to be 33700
